# System: B-16 melanoma cells
# Assay: Evaluation of melanin production-inhibitory function (degree of whiteness of cultured cells); also: key: ++: The degree of whiteness is higher than that observed for the positive control; +: The degree of whiteness is almost identical to that of the positive control; ±: The degree of whiteness is not higher than that observed for the positive control, but higher than that observed for control; −: The degree of whiteness is almost identical to that observed for the control
# Assay type: cell-based
# Stated Conditions: Concentration 25 ppm; rank vs 450 ppm vitamin C-magnesium phosphate
Reported Property: Evaluation of Melanin Production-Inhibition (degree of whiteness of cells)

Compound	Result
CC1(C)CC[C@]2(CO)CC[C@]3(C)C(=CC[C@@H]4[C@@]5(C)CC[C@H](O)C(C)(C)[C@@H]5CC[C@]43C)[C@@H]2C1	+
O=c1cc(CO)occ1O [Kojic acid, reference compound]	−
C=C(C)[C@@H]1CC[C@]2(C(=O)OCC)CC[C@]3(C)[C@H](CC[C@@H]4[C@@]5(C)CC[C@H](O)C(C)(C)[C@@H]5CC[C@]43C)[C@@H]12 [Compound of Synthetic Example 8, Betulinic Acid Ethyl Ester]	+
CC(=O)OCC12CCC(C)(C)CC1C1=CCC3C4(C)CCC(OC(C)=O)C(C)(C)C4CCC3(C)C1(C)CC2 (stereo not drawn) [Compound of Synthetic Example 5, 3,28-O-di-Acetyl-Erythrodiol]	+
C=C(C)[C@@H]1CC[C@]2(COC(C)=O)CC[C@]3(C)[C@H](CC[C@@H]4[C@@]5(C)CC[C@H](OC(C)=O)C(C)(C)[C@@H]5CC[C@]43C)[C@@H]12 [Compound of Synthetic Example 9, 3,28-O-di-Acetyl-Betulin]	±
CC(=O)OC[C@]12CC[C@@H](C)[C@H](C)[C@H]1C1=CC[C@@H]3[C@@]4(C)CC[C@H](OC(C)=O)C(C)(C)[C@@H]4CC[C@@]3(C)[C@]1(C)CC2 [Compound of Synthetic Example 7, 3,28-O-di-Acetyl-Uvaol]	+
